ASSAY PROTOCOL: duplex melting temperature (HRM, EvaGreen); higher = more stable duplex
CONDITION PARAMETERS: duplex concentration 15 µM; backbone: PS-PO (listed strand fully phosphorothioate, complement phosphodiester)
MEASURED PROPERTY: duplex melting temperature (°C)
Report the figure in °C without appending any unit label.

Reference set (4 entries):
[in] For CGTGCAGCACTACTTG , write its duplex melting temperature.
[out] 65.6

[in] For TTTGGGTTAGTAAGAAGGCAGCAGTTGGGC , write its duplex melting temperature.
[out] 77.4

[in] For CGGTGCTTTTGGTAGC , write its duplex melting temperature.
[out] 63.3

[in] For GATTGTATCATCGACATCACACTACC , write its duplex melting temperature.
[out] 70.4

Let us move to another entry and its duplex melting temperature.
[in] For GAACCGTTGATGATCTC , write its duplex melting temperature.
[out] 62.4

====

A collection of sequences and their measured duplex formation free energy ΔG50
ASSAY PROTOCOL: duplex formation free energy ΔG50 (Van't Hoff fit of HRM Tm); higher = less stable duplex
CONDITION PARAMETERS: temperature for dG: 50 °C; NaCl: 500 mM (unadjusted); backbone: PS-PO (listed strand fully phosphorothioate, complement phosphodiester)
Report the figure in kcal/mol without appending any unit label.

[in] For CCGTTGCTGCTAGG , write its duplex formation free energy ΔG50.
[out] -11.1

[in] For GGTGGCGTTCTT , write its duplex formation free energy ΔG50.
[out] -9.41

[in] For CGCGCGAGTATTTATAACCT , write its duplex formation free energy ΔG50.
[out] -13.7

[in] For GCTGTGAAACAATGTAG , write its duplex formation free energy ΔG50.
[out] -10.5

[in] For ACTCGCTCTACCTTAAT , write its duplex formation free energy ΔG50.
[out] -10.3

Next:
[in] For TTCGCGGTCTCCATTA , write its duplex formation free energy ΔG50.
[out] -11.2

[in] For CCGCTCAGAGTAGAGA , write its duplex formation free energy ΔG50.
[out] -11.3

====

ASSAY PROTOCOL: duplex formation free energy ΔG50 (Van't Hoff fit of HRM Tm); higher = less stable duplex
CONDITION PARAMETERS: temperature for dG: 50 °C; NaCl: 500 mM (unadjusted); backbone: PO-PO (both strands phosphodiester DNA)
MEASURED PROPERTY: duplex formation free energy ΔG50 (kcal/mol)
Report the figure in kcal/mol without appending any unit label.

[in] For AATGAGGAGTGAAATGG , write its duplex formation free energy ΔG50.
[out] -12

[in] For TTCGCGGTCTCCATTA , write its duplex formation free energy ΔG50.
[out] -12

[in] For CCCAGGCCTCGGATTTA , write its duplex formation free energy ΔG50.
[out] -14.1

[in] For ACTCGCTCTACCTTAAT , write its duplex formation free energy ΔG50.
[out] -11.8

====

ASSAY PROTOCOL: duplex melting temperature (HRM, EvaGreen); higher = more stable duplex
CONDITION PARAMETERS: duplex concentration 15 µM; backbone: PS-PS (both strands fully phosphorothioate)
A collection of sequences and their measured duplex melting temperature
Answer format: value, then unit.

[in] For GTGAGCAGAAGGGGTT , write its duplex melting temperature.
[out] 60.2 °C

Next:
[in] For TGTCGCACCCTACTA , write its duplex melting temperature.
[out] 59.7 °C

[in] For CACAGCGACATGTATGG , write its duplex melting temperature.
[out] 58.5 °C

[in] For CGTGCAGCACTACTTG , write its duplex melting temperature.
[out] 59.1 °C

[in] For TTCGCGGTCTCCATTA , write its duplex melting temperature.
[out] 61.8 °C

====

ASSAY PROTOCOL: duplex formation enthalpy ΔH (Van't Hoff fit of HRM Tm); higher = less exothermic duplex formation
CONDITION PARAMETERS: temperature for dG: 50 °C; NaCl: 500 mM (unadjusted); backbone: PO-PO (both strands phosphodiester DNA)
A collection of sequences and their measured duplex formation enthalpy ΔH
Report the figure in kcal/mol without appending any unit label.

[in] For GCTGAACTAACCACCA , write its duplex formation enthalpy ΔH.
[out] -77.7

[in] For GCCCGAGCATGACTGCG , write its duplex formation enthalpy ΔH.
[out] -98.8

[in] For CCGCTCAGAGTAGAGA , write its duplex formation enthalpy ΔH.
[out] -72.8

Next:
[in] For AGCTGAGCCTGCCGCC , write its duplex formation enthalpy ΔH.
[out] -98.2

[in] For TAGACGCGGCCTCTTTCC , write its duplex formation enthalpy ΔH.
[out] -99.8

[in] For AATGTCGAACAGCAATT , write its duplex formation enthalpy ΔH.
[out] -74.4

[in] For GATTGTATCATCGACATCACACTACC , write its duplex formation enthalpy ΔH.
[out] -127

[in] For GTCATTGTGCTTTTGC , write its duplex formation enthalpy ΔH.
[out] -78.5

[in] For TGTCGCACCCTACTA , write its duplex formation enthalpy ΔH.
[out] -63.3

[in] For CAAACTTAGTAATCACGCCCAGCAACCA , write its duplex formation enthalpy ΔH.
[out] -141

====

A collection of sequences and their measured duplex melting temperature
ASSAY PROTOCOL: duplex melting temperature (HRM, EvaGreen); higher = more stable duplex
CONDITION PARAMETERS: duplex concentration 5 µM; backbone: PS-PO (listed strand fully phosphorothioate, complement phosphodiester)
Report the figure in °C without appending any unit label.

Reference set (4 entries):
[in] For GTGAAACAATGCTGTAG , write its duplex melting temperature.
[out] 58.5

[in] For CAAGCCTCGATTTTGT , write its duplex melting temperature.
[out] 58.9

[in] For GGTTGCGGTGGCCAAC , write its duplex melting temperature.
[out] 59.2

[in] For ATAACTTACTCTCGCCT , write its duplex melting temperature.
[out] 59

Next:
[in] For CCCAGGCCTCGGATTTA , write its duplex melting temperature.
[out] 66.7

[in] For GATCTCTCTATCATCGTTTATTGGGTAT , write its duplex melting temperature.
[out] 65.6

[in] For AATGTCGAACAGCAATT , write its duplex melting temperature.
[out] 61.3

[in] For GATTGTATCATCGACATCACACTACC , write its duplex melting temperature.
[out] 68.4

[in] For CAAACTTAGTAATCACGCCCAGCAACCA , write its duplex melting temperature.
[out] 73.8

[in] For GTCATTGTGCTTTTGC , write its duplex melting temperature.
[out] 55.2

[in] For CGACATGTATGGCACAG , write its duplex melting temperature.
[out] 62.7

[in] For CTCAGAGTAGAGCCGA , write its duplex melting temperature.
[out] 63.1

[in] For TAGACGCGGCCTCTTTCC , write its duplex melting temperature.
[out] 70.8

[in] For GAACTGCCACTACCAA , write its duplex melting temperature.
[out] 60.9

[in] For CGGTGCTTTTGGTAGC , write its duplex melting temperature.
[out] 60.1

====

ASSAY PROTOCOL: duplex melting temperature (HRM, EvaGreen); higher = more stable duplex
CONDITION PARAMETERS: duplex concentration 2.5 µM; backbone: PS-PO (listed strand fully phosphorothioate, complement phosphodiester)
Would you please tag the item true when its duplex melting temperature is 60 °C or above, and false when it is below?

Take a look at these entries with their results.
[in] Please indicate if the recorded duplex melting temperature for AGGAGTGAATGAAATGG meets or exceeds 60 °C.
[out] false

[in] Please indicate if the recorded duplex melting temperature for TGTAAGACTTCTGCCAGAAA meets or exceeds 60 °C.
[out] true

Please look at the following sequence next.
[in] Please indicate if the recorded duplex melting temperature for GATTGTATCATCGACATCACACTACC meets or exceeds 60 °C.
[out] true

====

A collection of sequences and their measured duplex melting temperature
ASSAY PROTOCOL: duplex melting temperature (HRM, EvaGreen); higher = more stable duplex
CONDITION PARAMETERS: duplex concentration 5 µM; backbone: PS-PS (both strands fully phosphorothioate)
Report the figure in °C without appending any unit label.

[in] For GCTGTGAAACAATGTAG , write its duplex melting temperature.
[out] 47.5

[in] For CGTGCAGCACTACTTG , write its duplex melting temperature.
[out] 56.2

[in] For CTACCAGCGGCGCCGTT , write its duplex melting temperature.
[out] 68.9

====

ASSAY PROTOCOL: duplex melting temperature (HRM, EvaGreen); higher = more stable duplex
CONDITION PARAMETERS: duplex concentration 20 µM; backbone: PS-PO (listed strand fully phosphorothioate, complement phosphodiester)
MEASURED PROPERTY: duplex melting temperature (°C)
Report the figure in °C without appending any unit label.

[in] For CTCAGAGTAGAGCCGA , write its duplex melting temperature.
[out] 67.5

[in] For ATAACTTACTCTCGCCT , write its duplex melting temperature.
[out] 63.1

[in] For GTGAGCAGAAGGGGTT , write its duplex melting temperature.
[out] 69
